Test system: Gli1 transcript in Daoy cells stimulated with Shh conditioned media
Test: Functional assay for measuring the inhibition of Gli1 in Daoy cells (bDNA assay of Gli1 transcript after Shh-conditioned media stimulation)
Assay type: cell-based
Conditions: Homo sapiens; Daoy cells treated with Shh-CM, 24 hours incubation with compound, Gli1 transcript by bDNA luminescence
pIC50: −log10 of the molar value. Where a name gives a salt, the structure may show the parent alone.
assayEndpoint: pIC50

### Prompt Fill in: pIC50 of CN(C(=O)c1c(F)cccc1C(F)(F)F)C1CCN(c2nnc(-c3ccccc3)c3ccccc23)CC1 [Example 36, hydrochloride] is ___
### Response ~8.63
